Value source: the supplement of paper PMC10065799

Target: Fyn (UniProt P06241)
Sequence (P06241 whole entry, looked up): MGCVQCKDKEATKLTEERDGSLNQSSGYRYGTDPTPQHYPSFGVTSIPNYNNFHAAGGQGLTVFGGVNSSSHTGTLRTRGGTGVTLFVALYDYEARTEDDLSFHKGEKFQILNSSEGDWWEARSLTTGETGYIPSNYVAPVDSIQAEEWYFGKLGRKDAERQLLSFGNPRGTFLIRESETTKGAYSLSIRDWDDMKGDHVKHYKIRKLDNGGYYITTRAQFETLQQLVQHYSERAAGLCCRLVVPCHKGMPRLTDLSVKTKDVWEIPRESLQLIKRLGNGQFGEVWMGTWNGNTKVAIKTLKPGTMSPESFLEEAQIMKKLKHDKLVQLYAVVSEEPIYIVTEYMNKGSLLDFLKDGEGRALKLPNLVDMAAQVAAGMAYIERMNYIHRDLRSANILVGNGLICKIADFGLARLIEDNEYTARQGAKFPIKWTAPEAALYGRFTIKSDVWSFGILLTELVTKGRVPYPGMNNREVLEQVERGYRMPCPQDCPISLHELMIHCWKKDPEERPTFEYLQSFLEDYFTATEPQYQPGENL
Test: phosphorylation enrichment, bacterial display (enrichment ratio); higher = better substrate or ligand; peptides without Tyr show the background;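 further: 11-residue human phosphosite peptides and single-mutation variants displayed on the E. coli surface, counted by deep sequencing, each peptide's frequency after selection divided by its frequency in the unselected input library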;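 further: frequency after pTyr selection over input frequency; kinase dosed for 20-30% of maximal phosphorylation in three min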
Would you mind labelling by phosphorylation enrichment? At or over 0.4 is condition met, under is condition not met.

DPLLTYWFPPK [LMNA_Y481_R482W] :: condition met
GAVGNYSRGLA [MGMT_Y158_G160R] :: condition not met
IGSHAYGDQFR [IDH1_Y135_R132S_YF] :: condition met
HRGSLYLAIEY [TEK_Y899_Y897S] :: condition met
LSIQCYLRASD [HMGCS2_Y262_L266S] :: condition met

Proceed to the following item.
Please tell me: is the sequence SLHPGYNFRYA [P2RX7_Y291_Y288H] at or over 0.4 in terms of phosphorylation enrichment?
condition met

----------
Tested on: c-Src
Experiment: phosphorylation enrichment, bacterial display (enrichment ratio); higher = better substrate or ligand; peptides without Tyr show the background
reported metric: phosphorylation enrichment
Reply briefly: the number, and no unit.

Recorded phosphorylation enrichment, per entry:
LNSFIYSLRNR [OR1A1_Y288_P285S] :: 4.01
IKSSIYDNRNE [ARAP2_Y380_K384N] :: 0.399
RLQEGYDHSYY [ESD_Y258] :: 1.06
VGNAAYQAGSL [STK36_Y1181_P1185S] :: 0.361
TEVRRYVLPLN [RPE65_Y368_P363T] :: 0.38

What value of phosphorylation enrichment has been recorded for this entry: ATFRGYDSDNP [MMUT_Y146_H143Y_YF]
0.425

What do you get for DLQDENDFKCK [STAT1_Y170_Y170N] ?
0.498

What do you get for SLNEEYAKNKT [MSH2_Y563_T564A] ?
0.45

What do you get for SWDKRYCEAGF [ITGA2B_Y197] ?
0.426

What do you get for ETAENYLGHTA [HSPA9_Y181] ?
0.414

What do you get for DRFANYIEKVR [DES_Y122] ?
0.425

----------
Molecular target: Fes (UniProt P07332)
Sequence (P07332 whole entry, looked up): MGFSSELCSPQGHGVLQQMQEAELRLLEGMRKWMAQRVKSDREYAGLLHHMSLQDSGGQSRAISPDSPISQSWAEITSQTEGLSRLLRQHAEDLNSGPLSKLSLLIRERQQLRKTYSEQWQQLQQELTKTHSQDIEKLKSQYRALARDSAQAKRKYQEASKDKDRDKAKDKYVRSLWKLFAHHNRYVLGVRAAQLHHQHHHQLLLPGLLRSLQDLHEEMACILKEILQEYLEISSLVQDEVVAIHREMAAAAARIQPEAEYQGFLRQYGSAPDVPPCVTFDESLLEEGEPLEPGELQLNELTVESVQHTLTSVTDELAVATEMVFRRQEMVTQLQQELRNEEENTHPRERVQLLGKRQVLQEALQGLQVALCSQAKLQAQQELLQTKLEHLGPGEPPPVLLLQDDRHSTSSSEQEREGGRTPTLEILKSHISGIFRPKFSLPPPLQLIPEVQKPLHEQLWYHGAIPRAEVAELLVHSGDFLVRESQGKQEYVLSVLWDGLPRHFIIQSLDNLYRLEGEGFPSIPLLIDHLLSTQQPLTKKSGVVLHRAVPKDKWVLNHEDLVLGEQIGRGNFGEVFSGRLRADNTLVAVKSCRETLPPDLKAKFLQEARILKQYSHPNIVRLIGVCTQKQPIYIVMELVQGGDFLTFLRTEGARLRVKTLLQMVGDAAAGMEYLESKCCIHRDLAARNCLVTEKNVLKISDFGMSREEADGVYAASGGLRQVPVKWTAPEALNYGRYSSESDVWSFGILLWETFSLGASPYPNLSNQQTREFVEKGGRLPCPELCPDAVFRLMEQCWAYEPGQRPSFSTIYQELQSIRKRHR
Experiment: phosphorylation enrichment, bacterial display (enrichment ratio); higher = better substrate or ligand; peptides without Tyr show the background
reported metric: phosphorylation enrichment

Recorded phosphorylation enrichment, per entry:
EREYKYGAHKY [OAT_Y50_N54K] :: 0.625
EWQQIYTFDSG [JUP_Y20_T19I_YF] :: 1.58
VREIRCQGGNR [VWF_Y1570_Y1570C] :: 0.682
GLDGRYLLRDS [SH2D1A_Y29_S28R] :: 0.734
QNTGDYCDLYG [PTPN11_Y62_Y63C] :: 1.08
VPVPGYTKVPE [SPRR3_Y146_L149V] :: 0.75

Now look at this entry.
What value of phosphorylation enrichment has been recorded for this entry: AQVDTYCRHNF [HLA-DRB1_Y107_A103Q_YF]
0.959

----------
Molecular target: FGFR1 (UniProt P11362)
Sequence (P11362 whole entry, looked up): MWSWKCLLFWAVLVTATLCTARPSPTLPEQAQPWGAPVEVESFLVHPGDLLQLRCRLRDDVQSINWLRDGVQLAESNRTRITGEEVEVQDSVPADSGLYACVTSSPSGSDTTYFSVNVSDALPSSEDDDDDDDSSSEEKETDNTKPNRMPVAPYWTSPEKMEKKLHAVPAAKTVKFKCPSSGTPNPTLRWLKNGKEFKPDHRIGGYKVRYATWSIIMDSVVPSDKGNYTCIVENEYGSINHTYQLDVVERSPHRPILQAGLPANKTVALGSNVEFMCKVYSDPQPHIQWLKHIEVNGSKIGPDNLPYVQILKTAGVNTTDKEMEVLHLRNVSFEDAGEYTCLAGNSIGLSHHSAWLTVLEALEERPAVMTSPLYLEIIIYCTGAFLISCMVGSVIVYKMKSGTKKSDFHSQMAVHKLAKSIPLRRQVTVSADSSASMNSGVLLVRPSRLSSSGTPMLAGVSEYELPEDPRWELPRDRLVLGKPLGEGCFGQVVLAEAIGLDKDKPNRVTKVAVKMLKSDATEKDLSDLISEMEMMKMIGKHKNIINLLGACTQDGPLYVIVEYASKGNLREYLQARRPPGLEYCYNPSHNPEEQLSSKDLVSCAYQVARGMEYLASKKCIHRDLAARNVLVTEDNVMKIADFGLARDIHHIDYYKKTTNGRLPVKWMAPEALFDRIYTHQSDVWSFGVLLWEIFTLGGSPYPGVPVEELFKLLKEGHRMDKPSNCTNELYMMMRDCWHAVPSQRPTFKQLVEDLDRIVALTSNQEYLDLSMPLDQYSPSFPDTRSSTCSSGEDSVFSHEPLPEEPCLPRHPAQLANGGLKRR
Test: phosphorylation enrichment, bacterial display (enrichment ratio); higher = better substrate or ligand; peptides without Tyr show the background
Would you mind labelling by phosphorylation enrichment? At or over 0.5 is label 1, under is label 0.

Please review the following examples before continuing.
SVVVPYEPPEV [TP53_Y220] :: label 1
LMLVLYGRIFR [HTR1A_Y215] :: label 0
LMIKEYLTKEL [BAG3_Y457_E455K] :: label 0
SVVMPYEPPEV [TP53_Y220_V218M] :: label 1

Please tell me: is the sequence SCRENYSDSEE [LEMD3_Y258] at or over 0.5 in terms of phosphorylation enrichment?
label 1

What do you get for PPQFSYGLQTQ [SRA1_Y35] ?
label 1

What do you get for KKFPDYIQIAM [SGMS2_Y59_YF] ?
label 1
